test system: HL-60(TB) leukemia; test: NCI tumour cell line growth inhibition, 48 h
QUANTITY: TGI

Sample "Cc1nnc(-c2ccc(C)c(-c3ccc(C(=O)Nc4cccc(C#N)c4)cc3)c2)o1" ; TGI observed: > 25 µM

Sample O=C(Nc1ccc(C(F)(F)F)cc1[N+](=O)[O-])C(=O)C1NC(=S)NC1=O (stereo not given) ; TGI observed: > 100 µM

Sample "C=CC[P@]1(=O)O[C@H](c2ccccc2)[C@H](C)N1C" ; TGI observed: > 100 µM

Sample COc1ccc2c(c1)OC1=C(C(=O)OC1)C2c1cc(OC)c2c(c1)OCCO2 (stereo not given) ; TGI observed: 0.174 µM

Sample "CCCCCCCCCCCCCP(=O)(O)O" ; TGI observed: > 100 µM

Sample "CCCOC(=O)N[C@H]1CCc2c(Cl)c(OC)c(OC)c(OC)c2-c2ccc(SC)c(=O)cc21" ; TGI observed: < 0.01 µM

Sample "Nn1c(C23CC4CC(CC(C4)C2)C3)n[nH]c1=S" ; TGI observed: > 100 µM

Sample NC1=NN(c2ccccc2)C(=O)C1C(=O)CCC(=O)Nc1cccc(Cl)c1 (stereo not given) ; TGI observed: > 100 µM

Sample C=C(C)C1CC2(C)C(C)CC(O)CC2C(OC(=O)C=C(C)C)C1O (stereo not given) ; TGI observed: 50.5 µM

Sample "COc1ccc(C2=C[C@]3(O)CCCN3C[C@@H]2c2ccc(OC)c(OC)c2)cc1" ; TGI observed: < 0.0001 µM

Sample "Cc1ccc(-n2[nH]nc(C(N)=O)c2=O)cc1" ; TGI observed: > 100 µM

Sample "CC[C@@H](C)[C@H](NC(=O)[C@H](Cc1ccccc1)NCC(F)(F)F)C(=O)OC(C)(C)C" ; TGI observed: > 100 µM

Sample O=S(Cc1ccccc1)c1nc2ccccc2nc1-c1cccs1 (stereo not given) ; TGI observed: > 100 µM

Sample "O=C1C(=O)c2ccccc2C(O)=C1C(C1=C(O)c2ccccc2C(=O)C1=O)c1ccc(Cl)cc1" ; TGI observed: 4.83 µM

Sample "Cc1ccc(C(=O)O)c(/C=C2\Cc3ccc(C)cc3C2=O)c1" ; TGI observed: 98.6 µM

Sample "O=C1N/C(=C\[N+](=O)[O-])c2ccccc21" ; TGI observed: > 100 µM

Sample "CCOC(=O)/C=C(\C(=O)OCC)n1cc(C)c(=O)n(Cc2cn(CCCCOC(C)=O)nn2)c1=O" ; TGI observed: 7.32 µM

Sample O=C(NN1C(=O)C(Cl)C1c1ccc(Cl)cc1)c1c(Cl)c(Cl)c(Cl)c(Cl)c1-c1nc2ccccc2[nH]1 (stereo not given) ; TGI observed: 59.6 µM

Sample "CCOC(=O)[CH-]C(=O)C12CC3CC(CC(C3)C1)C2.CCOC(=O)[CH-]C(=O)C12CC3CC(CC(C3)C1)C2.CC[O-].CC[O-].[Ti+4]" ; TGI observed: > 100 µM

Sample CCOC1C(Br)Cn2c(=O)c3cc4ccccc4cc3c(=O)n2C1C (stereo not given) ; TGI observed: > 100 µM
